molecular target: 5-hydroxytryptamine receptor 1A (Rattus norvegicus) (UniProt P19327); assay: Displacement of [3H]-8-OH-DPAT from 5-HT1A receptor in rat hippocampal membranes by liquid scintillation counting; assay type: cell membranes; settings: Hippocampus, Membrane
Sequence (P19327 whole entry): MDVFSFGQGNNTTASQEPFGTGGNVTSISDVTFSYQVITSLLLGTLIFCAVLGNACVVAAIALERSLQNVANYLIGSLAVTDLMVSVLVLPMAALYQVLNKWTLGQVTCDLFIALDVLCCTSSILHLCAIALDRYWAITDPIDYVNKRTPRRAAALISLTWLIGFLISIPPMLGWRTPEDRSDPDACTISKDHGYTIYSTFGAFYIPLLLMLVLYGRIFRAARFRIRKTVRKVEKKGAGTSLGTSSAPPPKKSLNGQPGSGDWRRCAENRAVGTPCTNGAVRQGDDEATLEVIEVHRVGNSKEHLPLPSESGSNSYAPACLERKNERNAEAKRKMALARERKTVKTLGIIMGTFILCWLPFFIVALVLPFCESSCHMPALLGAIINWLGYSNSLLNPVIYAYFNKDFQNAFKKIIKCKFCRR
// reported Ks for each item listed
Property: Ks (nM)

Compound: COC(=O)C(C)N1C(=O)N(CC(O)CN2CCN(c3ccccc3OC)CC2)C(c2ccccc2)(c2ccccc2)C1=O (racemic)
Property: Ks
Reported measurement: 104
--
Compound: CCN1C(=O)N(CC(O)CN2CCN(c3ccccc3)CC2)C(c2ccccc2)(c2ccccc2)C1=O (racemic)
Property: Ks
Reported measurement: 610
--
Compound: COc1ccccc1N1CCN(CC(O)CN2C(=O)N(CC(=O)O)C(=O)C2(c2ccccc2)c2ccccc2)CC1.Cl (racemic)
Property: Ks
Reported measurement: 575
